Exercise: state measured growth for each of the molecules provided.
test system: Klebsiella aerogenes DSM 30053; assay: growth (OD595) fold change vs plate DMSO controls (fold change (ratio)); higher = more growth; conditions: incubation time: 27 h, anaerobic, 37 °C
Structures can show the parent of a compound that is named as a salt.
Quick one: just the number, no unit, thanks!

What value of growth has been reported for the following molecule? CC(C(=O)O)c1ccc2c(c1)[nH]c1ccc(Cl)cc12 (stereo unspecified) [Carprofen] (20 µM)
0.996

What value of growth has been reported for the following molecule? CN(Cc1cc(Br)cc(Br)c1N)C1CCCCC1 [Bromhexine hydrochloride] (20 µM)
0.971

What value of growth has been reported for the following molecule? Clc1ccc2c(c1)CCc1cccnc1C2=C1CCNCC1 [Desloratadine] (20 µM)
0.992

What value of growth has been reported for the following molecule? C[C@H](CCC(=O)O)[C@H]1CC[C@H]2[C@@H]3[C@H](O)C[C@@H]4C[C@H](O)CC[C@]4(C)[C@H]3CC[C@]12C [Chenodiol] (20 µM)
1.02

What value of growth has been reported for the following molecule? Cc1ccccc1C(=O)Nc1ccc(C(=O)N2CCCC(O)c3cc(Cl)ccc32)c(C)c1 (stereo unspecified) [Tolvaptan] (20 µM)
0.985

What value of growth has been reported for the following molecule? NS(=O)(=O)c1cc2c(cc1C(F)(F)F)NCNS2(=O)=O [Hydroflumethiazide] (20 µM)
0.989

What value of growth has been reported for the following molecule? Cc1onc(-c2c(Cl)cccc2Cl)c1C(=O)N[C@@H]1C(=O)N2[C@@H]1SC(C)(C)[C@@H]2C(=O)O [Dicloxacillin sodium salt hydrate] (20 µM)
0.975

What value of growth has been reported for the following molecule? CCOc1nc2cccc(C(=O)OCc3oc(=O)oc3C)c2n1Cc1ccc(-c2ccccc2-c2noc(=O)[nH]2)cc1 [Azilsartan medoxomil] (20 µM)
0.984

What value of growth has been reported for the following molecule? CC(=O)Nc1ccc(OCC(O)CNC(C)C)cc1 (stereo unspecified) [Practolol] (20 µM)
1

What value of growth has been reported for the following molecule? CN(C)CCC=C1c2ccccc2COc2ccccc21 [Doxepin hydrochloride] (20 µM)
0.978

What value of growth has been reported for the following molecule? CCOc1cc(CC(=O)N[C@@H](CC(C)C)c2ccccc2N2CCCCC2)ccc1C(=O)O [Repaglinide] (20 µM)
0.993

What value of growth has been reported for the following molecule? CC(C)(C)NC[C@H](O)COc1nsnc1N1CCOCC1 [Timolol maleate salt] (20 µM)
1.02

What value of growth has been reported for the following molecule? C/C(=C(\CCOC(=O)c1ccccc1)SS/C(CCOC(=O)c1ccccc1)=C(/C)N(C=O)Cc1cnc(C)nc1N)N(C=O)Cc1cnc(C)nc1N [Bisbentiamine] (20 µM)
0.994

What value of growth has been reported for the following molecule? Cc1cc(=O)oc2cc(O)ccc12 [Hymecromone] (20 µM)
0.98

What value of growth has been reported for the following molecule? O=S(=O)([O-])NC1CCCCC1.[Na+] [Sodium cyclamate] (50 µM)
0.974

What value of growth has been reported for the following molecule? COc1ccc(CN(CCN(C)C)c2ccccn2)cc1 [Pyrilamine maleate] (20 µM)
0.981

====

Exercise: state measured fold change of Histamine concentration for each of the compounds provided.
system: Klebsiella aerogenes DSM 30053; assay: fold change of Histamine concentration vs plate DMSO controls (fold change (ratio)); higher = more amine produced, active = hit call of the paper (significant change in both replicates, either direction); conditions: incubation time: 27 h, anaerobic, 37 °C
Structures can show the parent of a compound that is named as a salt.

What value of fold change of Histamine concentration has been reported for the following compound? CC(=O)OCC(=O)[C@@]1(OC(C)=O)[C@@H](C)C[C@H]2[C@@H]3C[C@H](F)C4=CC(=O)C=C[C@]4(C)[C@@]3(F)[C@@H](O)C[C@@]21C [Diflorasone Diacetate] (20 µM)
1.03 (inactive)

What value of fold change of Histamine concentration has been reported for the following compound? CCN(CC)CCNC(=O)c1cc(Br)c(N)cc1OC [Bromopride] (20 µM)
1.01 (inactive)

What value of fold change of Histamine concentration has been reported for the following compound? COc1cc2c(cc1OC)C(=O)C(CC1CCN(Cc3ccccc3)CC1)C2 (stereo unspecified) [Donepezil hydrochloride] (20 µM)
1.53 (inactive)

What value of fold change of Histamine concentration has been reported for the following compound? CCCCCN(C)CCC(O)(P(=O)(O)O)P(=O)(O)O [Ibandronate sodium] (20 µM)
1.04 (inactive)

What value of fold change of Histamine concentration has been reported for the following compound? COc1c(-c2ccc3cc(NS(C)(=O)=O)ccc3c2)cc(-n2ccc(=O)[nH]c2=O)cc1C(C)(C)C [Dasabuvir] (20 µM)
0.969 (inactive)

What value of fold change of Histamine concentration has been reported for the following compound? CCc1oc2ccccc2c1C(=O)c1cc(Br)c(O)c(Br)c1 [Benzbromarone] (20 µM)
0.958 (inactive)

What value of fold change of Histamine concentration has been reported for the following compound? CCN(CCCCOC(=O)c1ccc(OC)c(OC)c1)C(C)Cc1ccc(OC)cc1 (stereo unspecified) [Mebeverine hydrochloride] (20 µM)
0.903 (inactive)

What value of fold change of Histamine concentration has been reported for the following compound? CC(=O)CC(c1ccccc1)c1c(O)c2ccccc2oc1=O (stereo unspecified) (20 µM)
1.01 (inactive)

What value of fold change of Histamine concentration has been reported for the following compound? C#C[C@]1(O)CC[C@H]2[C@@H]3CCC4=C(CCC(=O)C4)[C@H]3CC[C@@]21C [Norethynodrel] (20 µM)
1.03 (inactive)

What value of fold change of Histamine concentration has been reported for the following compound? Oc1c(Cl)cc(Cl)cc1Sc1cc(Cl)cc(Cl)c1O [Bithionol] (20 µM)
1.05 (inactive)

What value of fold change of Histamine concentration has been reported for the following compound? CC(C)COCC(CN(Cc1ccccc1)c1ccccc1)N1CCCC1 (stereo unspecified) [Bepridil hydrochloride] (20 µM)
0.937 (inactive)

====

Exercise: state measured growth for each of the molecules provided.
system: Ruminococcus gnavus DSM 108212; test: growth (OD595) fold change vs plate DMSO controls (fold change (ratio)); higher = more growth; conditions: incubation time: 27 h, anaerobic, 37 °C
Structures can show the parent of a compound that is named as a salt.
Quick one: just the number, no unit, thanks!

What value of growth has been reported for the following molecule? CC1(C)S[C@@H]2[C@H](NC(=O)C(c3ccccc3)S(=O)(=O)O)C(=O)N2[C@H]1C(=O)O (stereo partly specified) [Sulbenicillin sodium salt] (20 µM)
0

What value of growth has been reported for the following molecule? Cc1ccccc1OCC(O)CO (stereo unspecified) [Mephenesin] (20 µM)
0.982

What value of growth has been reported for the following molecule? CNC(=O)c1c(I)c(C(=O)NCC(=O)Nc2c(I)c(C(=O)O)c(I)c(C(=O)NCCO)c2I)c(I)c(N(C)C(C)=O)c1I [Ioxaglic acid] (20 µM)
1.02

What value of growth has been reported for the following molecule? O=C(NCCCN1CCOCC1)c1ccc(Cl)cc1 [Eprobemide] (20 µM)
1.04

What value of growth has been reported for the following molecule? CN(C)CCN(Cc1ccc(Cl)cc1)c1ccccn1 [Chloropyramine hydrochloride] (20 µM)
0.771

What value of growth has been reported for the following molecule? O=C1c2ccccc2S(=O)(=O)N1CCCCN1CCN(c2ncccn2)CC1 [Ipsapirone] (20 µM)
0.939

====

system: Ruminococcus gnavus DSM 108212; test: growth (OD595) fold change vs plate DMSO controls (fold change (ratio)); higher = more growth; conditions: incubation time: 27 h, anaerobic, 37 °C
measured-endpoint: growth
Quick one: just the number, no unit, thanks!

What value of growth has been reported for the following compound? Cc1ccc(S(=O)(=O)NC(=O)NN2CC3CCCC3C2)cc1 (stereo not drawn) [Gliclazide] (20 µM)
0.999

What value of growth has been reported for the following compound? N[C@@H](Cc1ccc(O)c(O)c1)C(=O)O [Levodopa] (20 µM)
0.94

What value of growth has been reported for the following compound? Cn1c([N+](=O)[O-])cnc1COC(N)=O [Ronidazole] (20 µM)
0.0625

====

system: Clostridium sporogenes DSM 1664; assay: growth (OD595) fold change vs plate DMSO controls (fold change (ratio)); higher = more growth; conditions: incubation time: 27 h, anaerobic, 37 °C
Counter-ions that a name gives are not always drawn.
Label rule, in plain words: growth of 1 and up is y, under 1 is n.

Say whether CC(N)C12CC3CC(CC(C3)C1)C2 (stereo not given) [Rimantadine hydrochloride] (20 µM) shows growth of 1 or more.
n

Say whether CCCN(CCC)CCc1cccc2c1CC(=O)N2 [Ropinirole hydrochloride] (20 µM) shows growth of 1 or more.
y

Say whether O=C(N[C@H](CO)[C@H](O)c1ccc([N+](=O)[O-])cc1)C(Cl)Cl [Chloramphenicol] (20 µM) shows growth of 1 or more.
y

Say whether CNCc1cc(-c2ccccc2F)n(S(=O)(=O)c2cccnc2)c1 [Vonoprazan] (20 µM) shows growth of 1 or more.
y

Say whether COCCOC(=O)C1=C(C)NC(C)=C(C(=O)OC/C=C/c2ccccc2)C1c1cccc([N+](=O)[O-])c1 (stereo not given) [Cilnidipine] (20 µM) shows growth of 1 or more.
y

Say whether C[C@@](Cc1ccc(O)c(O)c1)(NN)C(=O)O [Carbidopa] (20 µM) shows growth of 1 or more.
n

Say whether COc1cc2nc(N3CCN(C(=O)C4CCCO4)CC3)nc(N)c2cc1OC (stereo not given) [Terazosin hydrochloride] (20 µM) shows growth of 1 or more.
y

Say whether CN1CCC(=C2c3ccccc3C=Cc3ccccc32)CC1 [Cyproheptadine hydrochloride] (20 µM) shows growth of 1 or more.
n

Say whether COc1cc([C@@H]2c3cc4c(cc3[C@@H](O[C@@H]3O[C@@H]5CO[C@@H](C)O[C@H]5[C@H](O)[C@H]3O)[C@H]3COC(=O)[C@H]23)OCO4)cc(OC)c1O [Etoposide] (20 µM) shows growth of 1 or more.
n

Say whether CC=C(C)C(=O)OC1C(OC(C)=O)C2(CO)C(O)CC3(C)C(=CCC4C5(C)CCC(OC6OC(C(=O)O)C(OC7OC(CO)C(O)C(O)C7O)C(O)C6OC6OC(CO)C(O)C(O)C6O)C(C)(CO)C5CCC43C)C2CC1(C)C (stereo not drawn) [Beta-Escin] (20 µM) shows growth of 1 or more.
n

Say whether CO/N=C(\C(=O)N[C@@H]1C(=O)N2C(C(=O)OC(C)OC(C)=O)=C(COC(N)=O)CS[C@H]12)c1ccco1 (stereo not given in full) [Cefuroxime axetil] (20 µM) shows growth of 1 or more.
n

Say whether CCOC(=O)C1=C(C)NC(C)=C(C(=O)OCC)C1c1ccccc1/C=C/C(=O)OC(C)(C)C [Lacidipine] (20 µM) shows growth of 1 or more.
y

Say whether c1ccc(CNc2ncnc3nc[nH]c23)cc1 [Aminopurine, 6-benzyl] (20 µM) shows growth of 1 or more.
y

Say whether CN1C(C(=O)Nc2ccccn2)=C(O)c2sccc2S1(=O)=O [Tenoxicam] (20 µM) shows growth of 1 or more.
y

Say whether CC(=O)Oc1ccc(C(=C2CCCCC2)c2ccc(OC(C)=O)cc2)cc1 [Cyclofenil] (20 µM) shows growth of 1 or more.
n

Say whether CCCCNc1cc(C(=O)O)cc(S(N)(=O)=O)c1Oc1ccccc1 [Bumetanide] (20 µM) shows growth of 1 or more.
y

Value source: the supplement of paper PMC12494721
